Just for reference, patent US20260158017A1 is where these values come from.

Reported pIC50 values for the following molecules.
biological target: Recombinant human KIF18A (1-467His-tagged) protein (Homo sapiens); construct: Recombinant human KIF18A (1-467His-tagged) protein; His; experiment: KIF18A enzyme assay (microtubule-stimulated ATPase activity, ADP-Glo); details: 30 nM KIF18A, 75 μM ATP, 30 μg/mL pig microtubules; read-out: Inhibitory activity against KIF18A IC50
pIC50: −log10 of the molar value.

# pIC50 lookup, item "CSc1ccc(NC(=O)c2ccc(NS(=O)(=O)CCO)cc2N2CCC3(CC2)CC3)nc1N1CCO[C@@H](C)C1"
≥ 7.00

// query pIC50 value for entry "C[C@@H]1CN(c2cc(C(=O)Nc3cnc(S(=O)(=O)NCCO)cc3N3CCC4(CC3)CC4)ccc2[N+](=O)[O-])CCO1"
6.30 to 7.00

New cases:
So what does the record say about pIC50 for "O=C(Nc1ccc(NS(=O)(=O)CCO)cc1N1CCC2(CC1)CC2)c1ccc([N+](=O)[O-])c(N2CCC(F)CC2)n1" ?
≥ 7.00

Please look up its pIC50: O=C(Nc1ccc([N+](=O)[O-])c(N2CC3CC3C2)n1)c1cnc(NS(=O)(=O)CCO)cc1N1CCC2(CC1)CC2 (stereo not shown)
≥ 7.00

May I ask what pIC50 has been recorded for "O=C(Nc1ccc([N+](=O)[O-])c(N2CCC3(CC3)C2)n1)c1cnc(S(=O)(=O)NCCO)cc1N1CCC2(CC1)CC2" ?
≥ 7.00

Item under review: "C[C@@H]1CN(c2cc(NC(=O)c3cnc(NS(=O)(=O)[C@H](C)CO)cc3N3CCC4(CC3)CC4)ccc2[N+](=O)[O-])CCO1" . Reported pIC50?
≥ 7.00

Would you mind telling me what pIC50 value was observed for "CSc1ccc(NC(=O)c2cnc(NS(=O)(=O)[C@@H](C)CO)cc2N2CCC3(CC2)CC3)nc1N1CCO[C@H](C)C1" ?
≥ 7.00

---

This section presents molecules with their documented pIC50 values.
molecular target: Recombinant human KIF18A (1-467His-tagged) protein (Homo sapiens); construct: Recombinant human KIF18A (1-467His-tagged) protein; His; experiment: KIF18A enzyme assay (microtubule-stimulated ATPase activity, ADP-Glo); conditions: 30 nM KIF18A, 75 μM ATP, 30 μg/mL pig microtubules; read-out: Inhibitory activity against KIF18A IC50
pIC50: −log10 of the molar value.

Please look up its pIC50: CSc1ccc(NC(=O)c2ccc(NS(=O)(=O)CCO)cc2N2CCC3(CC2)CC3)cc1N1CCC(F)(F)CC1 [Compound 577]
≥ 7.00

For the molecule shown here, C[C@H](CO)NS(=O)(=O)c1ccc(NC(=O)c2ccc([N+](=O)[O-])c(N3CCC(F)(F)CC3)n2)c(N2CCC3(CC2)CC3)c1 [Compound 190] , give the reported pIC50.
6.30 to 7.00

New cases:
Quick one: pIC50 for C[C@@H]1CN(c2cc(NC(=O)c3cnc(S(=O)(=O)NCCO)cc3N3CCC4(CC3)CC4)ccc2[N+](=O)[O-])CCO1 [Compound 114] ?
≥ 7.00

---

Measured pIC50 values are reported for all entries that follow.
target: Recombinant human KIF18A (1-467His-tagged) protein (Homo sapiens); construct: Recombinant human KIF18A (1-467His-tagged) protein; His; assay: KIF18A enzyme assay (microtubule-stimulated ATPase activity, ADP-Glo); conditions: 30 nM KIF18A, 75 μM ATP, 30 μg/mL pig microtubules; read-out: Inhibitory activity against KIF18A IC50
pIC50: −log10 of the molar value.

Take a look at these entries with their results.
Give Recombinant human KIF18A (1-467His-tagged) protein (Homo sapiens) pIC50 for "C[C@H](CO)NS(=O)(=O)c1ccc(C(=O)Nc2ccc([N+](=O)[O-])c(N3CCO[C@H](C)C3)c2)c(N2CCC3(CC2)CC3)c1"
≥ 7.00

Find the measured pIC50: item "CSc1ccc(NC(=O)c2cnc(NS(=O)(=O)CCO)cc2N2CCC3(CC2)CC3)nc1N1CCO[C@H](C)C1" , target or system Recombinant human KIF18A (1-467His-tagged) protein (Homo sapiens).
≥ 7.00

Identify the measured pIC50 of "O=C(Nc1ccc([N+](=O)[O-])c(OCCC(F)(F)F)n1)c1ccc(S(=O)(=O)NCCO)cc1N1CCC2(CC1)CC2" for Recombinant human KIF18A (1-467His-tagged) protein (Homo sapiens).
≥ 7.00

For the record "COc1ccc(C(=O)Nc2ccc(S(=O)(=O)N[C@H](C)CO)cc2N2CCC3(CC2)CC3)nc1N1CCO[C@H](C)C1" , what value of pIC50 is listed for Recombinant human KIF18A (1-467His-tagged) protein (Homo sapiens)?
≥ 7.00

Kindly state the measured pIC50 obtained for CSc1ccc(NC(=O)c2cnc(NS(=O)(=O)CCO)cc2N2CCC3(CC2)CC3)cc1N1CC2CC2C1 (centres unmarked) with Recombinant human KIF18A (1-467His-tagged) protein (Homo sapiens).
≥ 7.00

Notebook entry, Recombinant human KIF18A (1-467His-tagged) protein (Homo sapiens) assay: pIC50 of "COc1ccc(NC(=O)c2cnc(NS(=O)(=O)CCO)cc2N2CCC3(CC2)CC3)nc1N1CCC(F)(F)CC1" = ?
≥ 7.00

Reported pIC50 for Recombinant human KIF18A (1-467His-tagged) protein (Homo sapiens), given "O=C(Nc1ccc([N+](=O)[O-])c(N2CCC3(CC3)C2)n1)c1ccc(S(=O)(=O)NCCO)cc1N1CCC2(CC1)CC2" ?
≥ 7.00

Notebook: pull reported pIC50 for Recombinant human KIF18A (1-467His-tagged) protein (Homo sapiens), entry "COc1ccc(C(=O)Nc2ccc(NS(=O)(=O)CCO)cc2N2CCC3(CC2)CC3)nc1N1CCC(F)(F)CC1"
≥ 7.00

More entries:
Item "COc1ccc(C(=O)Nc2ccc(S(=O)(=O)NCCO)cc2N2CCC3(CC2)CC3)nc1N1CCC(F)CC1" with Recombinant human KIF18A (1-467His-tagged) protein (Homo sapiens) - pIC50?
≥ 7.00

---

tested on: Histone H3 Ser10 sites in HT29 cells; assay: Phosphorylation assay of histone H3 Ser10 sites in HT29 cells (immunofluorescence assay); type: cell-based; conditions: Homo sapiens, HT-29, 6 h after addition, FITC/DAPI ratio
pEC50: −log10 of the molar value.
Measurement label: pEC50

Quick one: pEC50 for "O=C(Nc1ccc(NS(=O)(=O)CCO)cc1N1CCC2(CC1)CC2)c1ccc([N+](=O)[O-])c(N2CCC(F)(F)CC2)n1" ?
7.58

(P) COc1ccc(NC(=O)c2ccc(NS(=O)(=O)CCOC(=O)[C@@H](N)C(C)C)cc2N2CCC3(CC2)CC3)nc1N1CCC(F)(F)CC1
(Q) CN(C)c1ccc(NC(=O)c2ccc(NS(=O)(=O)CCO)cc2N2CCC3(CC2)CC3)cc1N1CCC(F)(F)CC1
Between P and Q , which one shows the larger pEC50 value? State your choice using its label.
P
(P: 7.41, Q: 7.16)

---

target: Recombinant human KIF18A (1-467His-tagged) protein (Homo sapiens, UniProt Q8NI77); construct: Recombinant human KIF18A (1-467His-tagged) protein; His; test: KIF18A enzyme assay (microtubule-stimulated ATPase activity, ADP-Glo); details: 30 nM KIF18A, 75 μM ATP, 30 μg/mL pig microtubules; read-out: Inhibitory activity against KIF18A IC50
Sequence (Q8NI77 1-467): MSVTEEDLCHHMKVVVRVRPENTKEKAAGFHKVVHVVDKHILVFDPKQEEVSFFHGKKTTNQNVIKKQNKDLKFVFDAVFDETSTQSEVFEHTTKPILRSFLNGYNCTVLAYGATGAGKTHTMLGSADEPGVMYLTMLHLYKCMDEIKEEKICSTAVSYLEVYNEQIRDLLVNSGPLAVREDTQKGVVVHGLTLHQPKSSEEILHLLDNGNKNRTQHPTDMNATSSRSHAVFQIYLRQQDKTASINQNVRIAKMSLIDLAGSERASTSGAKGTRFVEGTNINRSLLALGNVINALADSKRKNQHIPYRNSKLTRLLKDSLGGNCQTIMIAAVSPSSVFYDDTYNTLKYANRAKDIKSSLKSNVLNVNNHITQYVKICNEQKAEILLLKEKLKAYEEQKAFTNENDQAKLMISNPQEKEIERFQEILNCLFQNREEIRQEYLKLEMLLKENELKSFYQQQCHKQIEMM
Sequence (P02550 whole entry partner): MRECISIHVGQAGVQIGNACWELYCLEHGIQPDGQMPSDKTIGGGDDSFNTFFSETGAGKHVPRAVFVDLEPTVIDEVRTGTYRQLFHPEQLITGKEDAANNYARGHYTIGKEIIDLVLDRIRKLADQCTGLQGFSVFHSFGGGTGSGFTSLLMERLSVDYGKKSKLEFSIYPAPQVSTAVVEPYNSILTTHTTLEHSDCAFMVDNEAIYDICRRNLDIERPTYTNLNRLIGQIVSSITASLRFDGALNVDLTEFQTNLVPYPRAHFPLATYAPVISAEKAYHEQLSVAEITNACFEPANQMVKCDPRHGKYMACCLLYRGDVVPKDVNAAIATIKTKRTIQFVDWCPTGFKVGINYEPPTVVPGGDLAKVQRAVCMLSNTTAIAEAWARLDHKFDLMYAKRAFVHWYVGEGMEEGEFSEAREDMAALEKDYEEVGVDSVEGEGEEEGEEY
Sequence (P02554 whole entry partner): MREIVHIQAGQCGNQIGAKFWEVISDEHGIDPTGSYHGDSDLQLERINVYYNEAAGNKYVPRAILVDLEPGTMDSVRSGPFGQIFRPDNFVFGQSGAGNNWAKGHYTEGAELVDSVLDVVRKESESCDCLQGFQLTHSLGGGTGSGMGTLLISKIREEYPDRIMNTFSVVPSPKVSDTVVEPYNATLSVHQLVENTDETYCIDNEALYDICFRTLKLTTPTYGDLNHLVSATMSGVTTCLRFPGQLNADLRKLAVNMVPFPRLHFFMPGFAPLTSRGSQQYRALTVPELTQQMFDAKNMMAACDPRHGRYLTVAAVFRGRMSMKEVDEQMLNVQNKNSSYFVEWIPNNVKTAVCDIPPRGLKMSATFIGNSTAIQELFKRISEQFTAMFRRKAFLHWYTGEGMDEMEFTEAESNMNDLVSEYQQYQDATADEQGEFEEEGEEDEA
pIC50: −log10 of the molar value.
# pIC50 annotations

Any idea what pIC50 came out for "C[C@@H]1CN(c2cc(NC(=O)c3ccc(NS(=O)(=O)CCO)cc3N3CCC4(CC3)CC4)ccc2[N+](=O)[O-])CCO1" on Recombinant human KIF18A (1-467His-tagged) protein (Homo sapiens, UniProt Q8NI77)?
≥ 7.00

Recorded pIC50 for "O=C(Nc1ccc(S(=O)(=O)NCCO)cc1N1CCC2(CC1)CC2)c1ccc([N+](=O)[O-])c(N2CCC3(CC3)C2)n1" with Recombinant human KIF18A (1-467His-tagged) protein (Homo sapiens, UniProt Q8NI77), please?
6.30 to 7.00

Which pIC50 is reported with Recombinant human KIF18A (1-467His-tagged) protein (Homo sapiens, UniProt Q8NI77) for this entry: "COc1ccc(C(=O)Nc2ccc(S(=O)(=O)NCCO)cc2N2CCC3(CC2)CC3)nc1N1CCO[C@H](C)C1" ?
≥ 7.00

Please provide the recorded pIC50 for "O=C(Nc1ccc(OCF)c(N2CCC(F)CC2)c1)c1cnc(NS(=O)(=O)CCO)cc1N1CCC2(CC1)CC2" , tested on Recombinant human KIF18A (1-467His-tagged) protein (Homo sapiens, UniProt Q8NI77).
≥ 7.00

---

Molecular target: Recombinant human KIF18A (1-467His-tagged) protein (Homo sapiens)
Construct: Recombinant human KIF18A (1-467His-tagged) protein; His
Assay: KIF18A enzyme assay (microtubule-stimulated ATPase activity, ADP-Glo)
Conditions: 30 nM KIF18A, 75 μM ATP, 30 μg/mL pig microtubules; read-out: Inhibitory activity against KIF18A IC50
Procedure: In Vitro Assay of the Compounds of the Present Invention for Inhibiting Enzymatic Activity of KIF18A KIF18A enzyme assay: The enzymatic activity of KIF18A after treatment with the compounds was measured by an assay of microtubule-stimulated ATPase activity. ADP generated from the ATPase reaction was measured in this assay. […] Luminescence was read using a microplate reader and compared with that of the DMSO group, and then the inhibition percentages and IC50 values of the compounds were calculated.
Measurement label: IC50

Field request: IC50 | item: "O=C(Nc1ccc(S(=O)(=O)NCCO)cc1N1CCC2(CC1)CC2)c1ccc([N+](=O)[O-])c(N2CCC(F)CC2)c1"
0.1 to 0.5 µM

What value of IC50 has been recorded for this entry: "O=C(Nc1ccc([N+](=O)[O-])c(N2CCC(F)CC2)n1)c1ccc(NS(=O)(=O)CCO)cc1N1CCC2(CC1)CC2"
≤ 0.1 µM

What value of IC50 has been reported for the following compound? "C[C@H]1CN(c2nc(NC(=O)c3ccc(NS(=O)(=O)CCO)cc3N3CCC4(CC3)CC4)ccc2[N+](=O)[O-])CCO1"
≤ 0.1 µM
